target: Adenosine-A2A Receptor (AA2AR) (Homo sapiens)
Sequence (P29274 whole entry): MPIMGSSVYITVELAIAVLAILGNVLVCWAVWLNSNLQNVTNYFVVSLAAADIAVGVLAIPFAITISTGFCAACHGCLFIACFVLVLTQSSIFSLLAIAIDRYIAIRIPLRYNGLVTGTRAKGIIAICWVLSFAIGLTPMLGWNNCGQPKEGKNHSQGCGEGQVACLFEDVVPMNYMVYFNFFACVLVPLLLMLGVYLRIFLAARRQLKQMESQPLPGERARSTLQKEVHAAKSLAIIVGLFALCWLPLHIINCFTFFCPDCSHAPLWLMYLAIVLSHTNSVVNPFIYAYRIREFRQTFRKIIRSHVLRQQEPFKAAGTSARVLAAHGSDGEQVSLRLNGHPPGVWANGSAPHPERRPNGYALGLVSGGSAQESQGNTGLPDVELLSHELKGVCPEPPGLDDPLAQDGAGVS
Readout label: Kd (µM)
Answers are plain numbers, in µM.

Reported Kd (Adenosine-A2A Receptor (AA2AR) (Homo sapiens)) for entry COc1ccc2[nH]ccc2n1 [F468, 5-methoxy-1H-pyrrolo[3,2-b]pyridine] is 210
